- Test system: MS2 coat protein
- procedureDetails: apparent KD of MS2 coat protein; higher = weaker reporter binding
- measurementConditions: Eterna round: R107; input ligand: none
Quick rule: apparent KD of MS2 coat protein of at least 20 nM means Criterion met, below that means Criterion not met.

Exercise: Does apparent KD of MS2 coat protein meet or surpass 20 nM for GCUGUACCAUGAAGGAGCGCUCACGCAGUUGCGGGUACAUGAGGAUCACCCAUGUUGGGUGAGCAGGUAGGUCGCAUGGUACAGC [SSAB #17] ?
Key: Criterion met

Exercise: Does apparent KD of MS2 coat protein meet or surpass 20 nM for GUAAAGUAAAGAAGGAGCGUCGAAAAUGGGUAAACAUGAGGAUCACCCAUGUAAAGGGAACGACAGGUAGGUCGCUUUAUUUUAC [AstromonsSSArgB#17] ?
Key: Criterion met

Exercise: Does apparent KD of MS2 coat protein meet or surpass 20 nM for UGACAUUGCUCAGAUACCAGACAGGAGGAUCACUCCUGUGCCAACAAGUACAAAAUAAAUGUCCCUUGGCAGCUGAGCAAUGUCU [TheoBX 25 #MS2Left #AlternativeMS2 #Theo22] ?
Key: Criterion met

Exercise: Does apparent KD of MS2 coat protein meet or surpass 20 nM for UGCCUAGACGUGGAUUACCCGUGUACCGAAGGAGCGCCCGAAAGGGCAGGUAGGUCGCGGAGGACAUGAGGAUCACCCAUGUUUG ?
Key: Criterion met

Exercise: Does apparent KD of MS2 coat protein meet or surpass 20 nM for GGCGUGGUCGGAAGGAGCGACAUGAGGAUCACCCAUGUCUCCCGUUAUGGGAGUUCCUUAGGUCAGGUAGGUCGCCGACUGCGGC [#1 Exclusion - Arginine B Attempt #22 (Inspired by Omei)] ?
Key: Criterion met

Exercise: Does apparent KD of MS2 coat protein meet or surpass 20 nM for CGGUGUAGGGUUAAUAGGCUGAGUACAGAAGGAGCGCGAAUAAACGCAGGUAGGUCGCUGGCGAACAUGAGGAUCACCCAUGUAU [Same State Arginine A GF 30] ?
Key: Criterion not met

Exercise: Does apparent KD of MS2 coat protein meet or surpass 20 nM for GGACCAGGGAGCGAUACCAGCUUGAGUGUGCUGGCCAGGCACAUGAGGAUCACCCAUGUAAGCCCUUGGCAGCGCUCCCUGGUCC [#1 Exclusion - Theophylline B Attempt #27 (HarryS)] ?
Key: Criterion not met

Exercise: Does apparent KD of MS2 coat protein meet or surpass 20 nM for UGUAUGGACUGAAGGAGCGGAAGAUAGCUUGAGGAUCACCCAAGUAAUAAGGCGAAAGCCUUCCAGGUAGGUCGCAGUCCAUACU ?
Key: Criterion met

Exercise: Does apparent KD of MS2 coat protein meet or surpass 20 nM for UUGUUGUUUGGAAGGAGCGUGUAUGAUUUAGAACAUGAGGAUCACCCAUGUUGGAGGAUAGCACAGGUAGGUCGCCGGGUGGUGG [11.X] ?
Key: Criterion not met

Exercise: Does apparent KD of MS2 coat protein meet or surpass 20 nM for CCGUUUUAUGGCGACAUAGGGCGGACUGAAGGAGCGGUAUAAUAGCCAGGUAGGUCGCAGAGAUCCACAUGAGGAUCACCCAUGU [!0.aB] ?
Key: Criterion met

Exercise: Does apparent KD of MS2 coat protein meet or surpass 20 nM for ACAUGAGGAUCACCCAUGUAUGACUAUCCUCGAGGACCGGUACGGCCGCCACUCGAAGGAGUGGCUCGCGAGUGCGCACUUGCAA [5' end] ?
Key: Criterion not met

Exercise: Does apparent KD of MS2 coat protein meet or surpass 20 nM for UUUCAGUGGACGGCCGCCACUGAAGUCGAUACAAUCAUGUAGAACAUGAGGAUCACCCAUGUAGUCAGGACCGGGUCCAAUGACU [Tryp B SS t3] ?
Key: Criterion met

Exercise: Does apparent KD of MS2 coat protein meet or surpass 20 nM for ACCUGUACGAAAAGUGCAGGACAUGAAUAACGAGGACCGGUACGGCCGCCACUCGGGUAAUAACCUGAGGAUCACCCGGGUCAUG [TrypAS 6 #AlternativeMS2 #Zipper #StaticStem] ?
Key: Criterion met

Exercise: Does apparent KD of MS2 coat protein meet or surpass 20 nM for GCUACAUGAGGAUCACCCAUGUGUACUGAAGGAGCGGCGGAAACGCCAGGUAGGUCGCAGUAUGUGGCUCUGGGCACGAGAUGGC [SSAA NP+V+V2 #1] ?
Key: Criterion met

Exercise: Does apparent KD of MS2 coat protein meet or surpass 20 nM for GAGCUCGUGGACUGGCGUGCUCCGCUCCGUCGAGGACCGGUACGGCCGCCACUCGACAUGAGGAUCACCCAUGUGCGAGCUCGCU [#1 Exclusion - Tryptophan A Attempt #22 (HarryS)] ?
Key: Criterion met

Exercise: Does apparent KD of MS2 coat protein meet or surpass 20 nM for GCCUCCAGCCGAAGGAGCGCUAGAAGGUGACAUGAGGAUCACCCAUGUGUGUGAUGUGGCUAGCAGGUAGGUCGCGGAGGAGGCA [Exclusion - Arginine B (Freestyle 22)] ?
Key: Criterion met

Exercise: Does apparent KD of MS2 coat protein meet or surpass 20 nM for AUGCAUAUCAGAAGGAGCGUCUUUAACAUGAGGAUCACCCAUGUAACAUUGAAUUCGAUGAGACAGGUAGGUCGCUGAAUAGUAA [SS-ArgB24] ?
Key: Criterion met

Exercise: Does apparent KD of MS2 coat protein meet or surpass 20 nM for UAUAUAGAAGGAAGUCAUAUAGUUGCAGAAGGAGCGUAGGAAACUACAGGUAGGUCGCUGAGGUACAUGAGGAUCACCCAUGUAG [SSArg A #16 Slice of Pi] ?
Key: Criterion met

Exercise: Does apparent KD of MS2 coat protein meet or surpass 20 nM for UUAGAUUGCCGAAGGAGCGAGAUAGCCUACAUGAGGAUCACCCAUGUAGAAACGGGCUGAUCUCAGGUAGGUCGCGGCAGGUAGC [Soaquatan] ?
Key: Criterion met

Exercise: Does apparent KD of MS2 coat protein meet or surpass 20 nM for CUCCCGUGGUCGGCCGCCACUGGAGGCCUUGCGCGACAUGAGGAUCACCCAUGUUGGCCCGGCGUCAGGACCGGGAUCGCGUGAG [#1 Same State - Tryptophan B Attempt #10 (HarryS)] ?
Key: Criterion not met

Exercise: Does apparent KD of MS2 coat protein meet or surpass 20 nM for UCGGGUUUGCGAAGGAGCGGGUAUGUUUUCUAGUGGAUCCUAACAUGAGGAUCACCCAUGUCCCAGGUAGGUCGCGCGGGUUUGG [12.W] ?
Key: Criterion met

Exercise: Does apparent KD of MS2 coat protein meet or surpass 20 nM for GAGACAUCGGGAAGGAGCGCAUCCAAACCACACAUGAGGAUCACCCAUGUAUAAAUAUGCAUGCAGGUAGGUCGCCCGGUAUCCC [Tiisqure] ?
Key: Criterion met
